Assay: DNDI: Cytotoxicity against L929 mouse fibroblasts, 72 hour.
Type: toxicity, cell-based
Conditions: mouse, L929 mouse fibroblasts
observable: IC50 at 72 h (µg/mL)
Use µg/mL as the unit, but write only the number.

Sample records with IC50 at 72 h:
CCCCc1ccc(-c2nc(CNCCN3CCCC3)co2)cc1 | 3.87
CC(C)Oc1ccc(-c2nc(CNC3CCCCCC3)co2)cc1 | 6.77
Clc1ccc(-c2nc(CNC3CCCC3)co2)cc1 | 12.9
Clc1ccc(-c2nc(CNC3CCCCCC3)co2)cc1 | 3.43
CCCCc1ccc(-c2nc(Nc3cccnc3)co2)cc1 | 6.24

Reported IC50 at 72 h, compound CCCCc1ccc(-c2nc(CNCCCN(C)C)co2)cc1 : ____
1.4

Reported IC50 at 72 h, compound CCCCCC(C)NCc1coc(-c2ccccc2C)n1 (centres undefined) : ____
3.6

Reported IC50 at 72 h, compound CCCCc1ccc(-c2nc(CN[C@@H]3C[C@@H]4C[C@H]([C@H]3C)C4(C)C)co2)cc1 : ____
0.79
